Catalogue of molecules with associated kon
target: 14-3-3ζ (Homo sapiens, UniProt P63104); construct: hexa-His; made in house; host or cells: E. coli BL21(DE3) Star; assay: Biolayer interferometry (Octet RED96), immobilised biotinylated peptides, 14-3-3ζ in solution; type: binding; settings: typical experiment (n ≥ 3)
Sequence (P63104 whole entry): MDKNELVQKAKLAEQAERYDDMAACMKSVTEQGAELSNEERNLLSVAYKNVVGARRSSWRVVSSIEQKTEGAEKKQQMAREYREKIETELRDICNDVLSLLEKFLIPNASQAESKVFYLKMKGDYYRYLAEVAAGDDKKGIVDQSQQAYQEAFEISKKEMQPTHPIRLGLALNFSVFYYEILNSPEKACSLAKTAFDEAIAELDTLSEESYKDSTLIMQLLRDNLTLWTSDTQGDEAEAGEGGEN
Square brackets hold non-standard residues; d marks the D form. Peptide text beside a SMILES is read from it. * marks the point of attachment. Geranylgeranyl = CC(C)=CCC/C(C)=C/CC/C(C)=C/CC/C(C)=C/C*; Biotin = O=C1N[C@H]2[C@H](CS[C@H]2CCCCC(=O)*)N1; Farnesyl = CC(C)=CCC/C(C)=C/CC/C(C)=C/C*; pS = N[C@@H](COP(=O)(O)O)C(=O)O; X1 = CC(C)=CCC/C(C)=C/C*; Ahx = NCCCCCC(=O)O; Prenyl = CC(C)=CC*

MOLECULE	kon, M⁻¹ s⁻¹
CC(C)=CCSC[C@H](NC(=O)[C@H](COP(=O)(O)O)NC(=O)[C@H](CCCCN)NC(=O)[C@H](C)NC(=O)[C@H](CCCCN)NC(=O)[C@H](CC(=O)O)NC(=O)[C@H](CCCCN)NC(=O)[C@H](CCCNC(=N)N)NC(=O)[C@H](CC(C)C)NC(=O)[C@H](CC(=O)O)NC(=O)CCCCCNC(=O)CCCC[C@@H]1SC[C@@H]2NC(=O)N[C@@H]21)C(=O)O [+P+Ipr] ({Biotin-Ahx}-DLRKDKAK[pS]C(Prenyl)-OH)	240000
CC(C)=CCC/C(C)=C/CSC[C@H](NC(=O)[C@H](COP(=O)(O)O)NC(=O)[C@H](CCCCN)NC(=O)[C@H](C)NC(=O)[C@H](CCCCN)NC(=O)[C@H](CC(=O)O)NC(=O)[C@H](CCCCN)NC(=O)[C@H](CCCNC(=N)N)NC(=O)[C@H](CC(C)C)NC(=O)[C@H](CC(=O)O)NC(=O)CCCCCNC(=O)CCCC[C@@H]1SC[C@@H]2NC(=O)N[C@@H]21)C(=O)O [+P+G] ({Biotin-Ahx}-DLRKDKAK[pS]C(X1)-OH)	570000
CC(C)=CCC/C(C)=C/CC/C(C)=C/CSC[C@H](NC(=O)[C@H](COP(=O)(O)O)NC(=O)[C@H](CCCCN)NC(=O)[C@H](C)NC(=O)[C@H](CCCCN)NC(=O)[C@H](CC(=O)O)NC(=O)[C@H](CCCCN)NC(=O)[C@H](CCCNC(=N)N)NC(=O)[C@H](CC(C)C)NC(=O)[C@@H](N)CC(=O)O)C(=O)O [+P+F] (H-DLRKDKAK[pS]C(Farnesyl)-OH)	860000
CC(C)=CCC/C(C)=C/CC/C(C)=C/CC/C(C)=C/CSC[C@H](NC(=O)[C@H](COP(=O)(O)O)NC(=O)[C@H](CCCCN)NC(=O)[C@H](C)NC(=O)[C@H](CCCCN)NC(=O)[C@H](CC(=O)O)NC(=O)[C@H](CCCCN)NC(=O)[C@H](CCCNC(=N)N)NC(=O)[C@H](CC(C)C)NC(=O)[C@H](CC(=O)O)NC(=O)CCCCCNC(=O)CCCC[C@@H]1SC[C@@H]2NC(=O)N[C@@H]21)C(=O)O [+P+GG] ({Biotin-Ahx}-DLRKDKAK[pS]C(Geranylgeranyl)-OH)	890000
